assay.system: T1, Anti-PSMA Fab (SEQ ID NOs: 19, 20)
T1 construct: Biotinylated and captured on neutravidin-coated plates in the phage ELISA; also called 006 PSMA Fab
procedure.summary: phage binding ELISA; PSMA Fab on plate pre-incubated with PSMA antigen as competitor, anti-M13 HRP detection;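 note: crude clonal phage supernatants added without washing to wells preincubated with PSMA in blocking buffer, compared with wells receiving blocking buffer only, then bound phage detected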
Where no end group is shown, it is not given here.
quantity.measured: Anti-PSMA Fab signal in the presence of PSMA
One number for each entry.

Here is how some binders turned out for Anti-PSMA Fab signal in the presence of PSMA.
[
  {
    "binder": "LMKWCIPQWMCQLD [Phage-2243 peptide (SEQ ID NO: 2559)]",
    "reported": 0.249
  },
  {
    "binder": "GTNWCTPAWMCAGF (cysteine pairing not given here; also: displayed on bacteriophage as fusion to pIII) [Phage-2251 peptide (SEQ ID NO: 2567)]",
    "reported": 0.061
  },
  {
    "binder": "LMNWCIPPWMCSAQ [Phage-2242 peptide (SEQ ID NO: 2558)]",
    "reported": 0.0907
  },
  {
    "binder": "SEKLCIPEWMCAQA (cysteine pairing not given here; also: displayed on bacteriophage as fusion to pIII) [Phage-2245 peptide (SEQ ID NO: 2561)]",
    "reported": 0.0686
  }
]

// batch mode: one Anti-PSMA Fab signal in the presence of PSMA value per listed entry
1. LENWCKPAWMCWGM [Phage-2248 peptide (SEQ ID NO: 2564)]
2. IDKWCIPAWMCEST [Phage-2250 peptide (SEQ ID NO: 2566)]
3. HPNWCTPPWMCLGL [Phage-2239 peptide (SEQ ID NO: 2555)]
4. VVKWCIPTWMCENS [Phage-2241 peptide (SEQ ID NO: 2557)]
5. ADKWCIPEWMCQQD [Phage-2252 peptide (SEQ ID NO: 2568)]
6. GEIWCTPKWMCDGF [Phage-2246 peptide (SEQ ID NO: 2562)]

Given back:
[0.0811, 0.105, 0.0699, 0.0889, 0.0665, 0.0716]

// batch mode: one Anti-PSMA Fab signal in the presence of PSMA value per listed entry
1. NIIRCTPAWMCDGF [Phage-2247 peptide (SEQ ID NO: 2563)]
2. DFKWCIPTWMCEVY [Phage-2238 peptide (SEQ ID NO: 2554)]
3. LVKLCIPEWMCSEG [Phage-2244 peptide (SEQ ID NO: 2560)]
4. IIKWCTPEWMCVGF [Phage-2249 peptide (SEQ ID NO: 2565)]

Given back:
1. 0.0619
2. 0.0768
3. 0.0711
4. 0.0748
